assay: NCI Yeast Anticancer Drug Screen. Data for the cln2 rad14 strain (AID 165);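 also: 0% = growth equal to vehicle treated cultures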; settings: S. cerevisiae cln2 rad14 strain, at 50.0 µM (retest, dose inferred, filed as 5.0), stronger effect = higher value
The panel holds about 79,000 compounds, 15% with a hit somewhere; the sample as a whole holds those more often. The source made the active and inactive calls. Rule as the data show it: active = growth inhibition above about 70%; inactive = the rest.
MEASURED PARAMETER: growth inhibition

# MOLECULE, growth inhibition
rows = [
    ("O=C(O)CC1c2ccccc2-c2ccccc21", "54% (inactive)"),
]

-- ask Reported growth inhibition, molecule CNC(=O)OCc1c(COC(=O)NC)c2n(c1C)-c1ccccc1CCC2 : ____
-- reply 56% (inactive)

-- ask Reported growth inhibition, molecule CCOC(=O)N1CCN(C=S)CC1 : ____
-- reply 31% (inactive)

-- ask Reported growth inhibition, molecule CN(C)CC(C)(CN(C)C)C(=O)/C=C/c1ccc(Cl)c(Cl)c1 : ____
-- reply 99% (active)

-- ask Reported growth inhibition, molecule C[Si](C)(CCC(=O)O)O[Si](C)(C)CCC(=O)O : ____
-- reply 59% (inactive)

-- ask Reported growth inhibition, molecule CCOC(=O)/C(=C\N1C(=O)/C(=C\C(C)=C\c2ccccc2)SC1=S)C(=O)c1ccccc1 : ____
-- reply 2% (inactive)

-- ask Reported growth inhibition, molecule Cc1cc(O)c2c(c1)OC1(C)CCC3C(C)(C)CCCC34COC2C14 (configuration not stated) : ____
-- reply 98% (active)

* * *

Each entry below lists one item and its recorded growth inhibition value.
Assay: NCI Yeast Anticancer Drug Screen. Data for the sgs1 mgt1 strain (AID 161);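 also: 0% = growth of cultures given vehicle only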
Conditions: S. cerevisiae sgs1 mgt1 strain, at 50.0 µM (retest, dose inferred, filed as 5.0), stronger effect = higher value
Protocol: Growth inhibition of yeast strains with defined genetic alterations is measured as a screen for potential anti-cancer activity. Selected strains with alterations in DNA damage repair or cell cycle control were exposed to compounds and growth inhibition was measured relative to vehicle treated controls. The strain used in this assay is sgs1 mgt1
This is part of a sample that, as a whole, favours compounds with a hit. Of some 79,000 tested, about 15% had one in any assay.
I only need the number, in %, no unit after it.

# example entries with known answers
# MOLECULE, RESULT VALUE
data = [
    ("CCCC(=O)OCC1CC2C=CC1C2 (centres undefined)", -1),
    ("COC(=O)/C=C1/OC(c2ccccc2)=C(C)C1=O", 14),
    ("Cc1cc(O)n(Cc2ccccc2)c(=O)c1", 33),
    ("CN(C)CCOC1(CC2CCCCC2)CCC(C(C)(C)C)CC1 (centres undefined)", 99),
]

# input for lookup
-- ask Reported growth inhibition, molecule Oc1cccnc1CN1CCCCC1 : ____
-- reply 8

* * *

Each entry below lists one item and its recorded growth inhibition value.
experiment: NCI Yeast Anticancer Drug Screen. Data for the mlh1 rad18 strain (AID 175); details: S. cerevisiae mlh1 rad18 strain growth inhibition; at 5.0 µM (retest, dose inferred, filed as 0.5); stronger effect = higher value
Compounds without any hit were thinned out: in the full panel of roughly 79,000, 15% have a hit.
I only need the number, in %, no unit after it.

# example entries with known answers
# COMPOUND, MEASURED PARAMETER, READING UNIT, RESULT VALUE
data = [
    ("FC(F)(F)c1ccccc1NC(=S)SCc1ccc(Cl)cc1", "growth inhibition", "%", -3),
    ("COc1ccc2[nH]c3ccc4cc[n+](CCN5CCC(C6CCN(CC[n+]7ccc8ccc9[nH]c%10ccc(OC)cc%10c9c8c7)CC6)CC5)cc4c3c2c1", "growth inhibition", "%", 77),
    ("CCC[CH2][Ge]([CH2]CCC)([CH2]CCC)[O]C(=O)CC(=O)c1ccccc1", "growth inhibition", "%", -1),
]

-- ask Reported growth inhibition, compound COc1ccc(C(CN2CCOCC2)C(C)=O)cc1OC (stereo unspecified) : ____
-- reply 5
